# Assayed Target: NA (H1N1,09) (Influenza A virus, UniProt C3W5S3)
# Protocol Notes: biochemical
# Setup Conditions: in vitro NA inhibition assay (n = 3)
Endpoint: IC50 (µM)
Your answer should be a plain number; it is taken to be in µM.

Note to self: IC50 recorded for "CC(=O)O[C@H]1C[C@H]([C@H](C)CC/C=C(\C)C(=O)O)[C@@]2(C)CC=C3C(=CC[C@H]4C(C)(C)C(=O)CC[C@]34C)[C@]12C" was 5.6

Note to self: IC50 recorded for "CC(=O)O[C@H]1C[C@H]([C@H](C)CC/C=C(\C)C(=O)O)[C@@]2(C)CC=C3C(=CC[C@H]4C(C)(C)[C@@H](O)CC[C@]34C)[C@]12C" was 42

====

# System: NA (H7N9)
# Assay type: biochemical
# Setup Conditions: 200 µM
Some molecules, each annotated with its measured Inhibition rate (%) NA(H7N9).
Your answer should be a plain number; it is taken to be in %.

CC(CC(=O)C[C@@H](C)[C@H]1CC(=O)[C@@]2(C)C3=C(C(=O)C[C@]12C)[C@@]1(C)CC[C@H](O)C(C)(C)[C@@H]1C[C@@H]3O)C(=O)O (stereo partly drawn) : 5.5

Note to self: Inhibition rate (%) NA(H7N9) recorded for "C/C(=C\CC[C@@H](C)[C@H]1CC[C@@]2(C)C3=CC[C@H]4C(C)(C)[C@@H](O)CC[C@]4(C)C3=CC[C@]12C)C(=O)O" was 17.8

Note to self: Inhibition rate (%) NA(H7N9) recorded for "C[C@H](CC[C@H](O)[C@](C)(O)CO)[C@H]1CC[C@@]2(C)C3=CC[C@H]4C(C)(C)C(=O)CC[C@]4(C)C3=CC[C@]12C" was 10.3

====

# Protocol Notes: in vitro
# Setup Conditions: human
Endpoint: CC50

# count of solved cases: 4
C[C@H](CC(=O)C[C@@H](C)[C@H]1C[C@H](O)[C@@]2(C)C3=C(C(=O)C[C@]12C)[C@@]1(C)CC[C@H](O)C(C)(C)[C@@H]1C[C@@H]3O)C(=O)O [Compound 9, Ganoderic acid C2] : > 200 µM
C/C(=C\CC[C@@H](C)[C@H]1CC[C@@]2(C)C3=CC[C@H]4C(C)(C)C(=O)CC[C@]4(C)C3=CC[C@]12C)CO [Compound 25, Ganoderol A] : 20.4 µM
CC(CC(=O)C[C@@H](C)[C@H]1CC(=O)[C@@]2(C)C3=C(C(=O)C[C@]12C)[C@@]1(C)CC[C@H](O)C(C)(C)[C@@H]1C[C@@H]3O)C(=O)O (stereo partly shown) [Compound 14, Ganoderic acid B] : > 200 µM
C/C(=C\CC[C@@H](C)[C@H]1CC[C@@]2(C)C3=CC[C@H]4C(C)(C)[C@@H](O)CC[C@]4(C)C3=CC[C@]12C)CO [Compound 26, Ganoderol B] : > 200 µM

Note to self: CC50 recorded for C/C(=C\CC[C@@H](C)[C@H]1CC[C@@]2(C)C3=C(CC[C@]12C)[C@@]1(C)CCC(=O)C(C)(C)[C@@H]1CC3=O)C(=O)O [Compound 20, Ganoderic acid DM] was > 200 µM

Note to self: CC50 recorded for C[C@H](CC(=O)C[C@@H](C)[C@H]1CC(=O)[C@@]2(C)C3=C(C(=O)C[C@]12C)[C@@]1(C)CCC(=O)C(C)(C)[C@@H]1C[C@@H]3O)C(=O)O [Compound 19, Ganoderic acid C1] was > 200 µM

Note to self: CC50 recorded for C[C@H](CCC=C(CO)CO)[C@H]1CC[C@@]2(C)C3=CC[C@H]4C(C)(C)C(=O)CC[C@]4(C)C3=CC[C@]12C [Compound 27, Ganoderiol F] was > 200 µM
